# maps each entry to its apparent KD of MS2 coat protein
# Tested on: MS2 coat protein
# Test method notes: apparent KD of MS2 coat protein; higher = weaker reporter binding
# Study conditions: Eterna round: R107; input ligand: theophylline 20 uM
// unit must come after the numeric part

Residue string	apparent KD of MS2 coat protein
AUAUGAUCAUACGAUACCAGAAAUGGUAUUCCUUUAUUUCUUACAUGAGGAUCACCCAUGUUCCCUUGGCAGCGUAUGAUCAUAU [ETHB #3]	327 nM
AGCUCGCAUCCUCUAGCGUCAAAGACGCGUCGAGGACCGGUACGGCCGCCACUCGACUUGAGGAACACCCAAGUCCUAGCGAGCA [TrypAX 12 #SwitchBubble #AlternativeMS2 #MS2Late #CuTurnoff]	217 nM
ACCUGUACGAAAAGUGCAGGACACGGAAUACGAGGACCGGUACGGCCGCCACUCGGAAUAACCUGAGGAUCACCCUGGUACCGUG [TrypAS 10 #AlternativeMS2 #Zipper #StaticStem]	27.5 nM
CAGUCAGUCAGUCAAUGAGUGAGGCAUGAAGGAGCGUGGGAAACCACAGGUAGGUCGCAUGCGGAACAUGAGGAUCACCCAUGUU [SSArg A #4]	26.2 nM
GGUUGAAACUGAAGGAGCGAGAUCACAAGAUUGGGUCUAACAUGAGGAUCACCCAUGUAAUCUCAGGUAGGUCGCAGUGACCAAA [Exclusion Arginine B GF 13]	45.1 nM

Attention now shifts to the item below.
*Q* Can you look up the measured apparent KD of MS2 coat protein of UAUAUAUAUCACGAACUGUGGUGUAUGUCCCGAGGACCGGUACGGCCGCCACUCGCGUGGUUCCACAUGAGGAUCACCCAUGUUG [XTryp A #7] for me?
*A* 31.3 nM
